Hey, just so you know, these numbers are from patent US8017780B1.

# Target or system: purified human Hsp90
# Construct: purified human Hsp90 (Stressgen, SPP-770)
# Protocol summary: Hsp90 binding assay: displacement of BODIPY-labeled geldanamycin by fluorescence polarization
# Condition info: BODIPY-GM 10 nM, purified human Hsp90 30 nM, overnight at room temperature; read-out: GM Displacement From Purified Hsp90 measured by FP
Parameter: log10(IC50). Scope: all listed entries.
Scale: log10; quantity: IC50; unit before log: nM

These solved cases illustrate the format of a correct answer.
C[C@H](O)C(=O)N1CCC(CCn2c(Sc3cc4c(cc3N(C)C)OCO4)nc3c(N)nccc32)CC1: 2.04
CC(=O)O[C@@H](C)C(=O)N1CCC(CCn2c(Sc3cc4c(cc3N(C)C)OCO4)nc3c(N)nccc32)CC1: 1.90
Nc1nccc2c1nc(Sc1cc3c(cc1Br)OCO3)n2CCC1CCN(C=O)CC1: 3.70
CC(=O)N1CCC(CCn2c(Sc3cc4c(cc3Br)OCO4)nc3c(N)nccc32)CC1: 3.70

// map CN(C)c1cc2c(cc1Sc1nc3c(N)nccc3n1CCC1CCN(C=O)CC1)OCO2 to recorded log10(IC50) (system: purified human Hsp90)
2.04

Form entry - test system: purified human Hsp90; read-out: log10(IC50); compound: Nc1nccc2c1nc(Sc1cc3c(cc1Br)OCO3)n2CCc1ccccc1Cl
3.38

Param readout= log10(IC50); system= purified human Hsp90; entry= C[C@H](O)C(=O)N1CCC(CCn2c(Sc3cc4c(cc3Br)OCO4)nc3c(N)nccc32)CC1 ; returns value.
3.00
